The following molecules are listed with their measured EC50 values.
Target: FSHR (Homo sapiens)
Construct: expressed in transfected cells; host or cells: CHO (Cho-FSHR-LUC-1-1-43)
Sequence (P23945 18-695): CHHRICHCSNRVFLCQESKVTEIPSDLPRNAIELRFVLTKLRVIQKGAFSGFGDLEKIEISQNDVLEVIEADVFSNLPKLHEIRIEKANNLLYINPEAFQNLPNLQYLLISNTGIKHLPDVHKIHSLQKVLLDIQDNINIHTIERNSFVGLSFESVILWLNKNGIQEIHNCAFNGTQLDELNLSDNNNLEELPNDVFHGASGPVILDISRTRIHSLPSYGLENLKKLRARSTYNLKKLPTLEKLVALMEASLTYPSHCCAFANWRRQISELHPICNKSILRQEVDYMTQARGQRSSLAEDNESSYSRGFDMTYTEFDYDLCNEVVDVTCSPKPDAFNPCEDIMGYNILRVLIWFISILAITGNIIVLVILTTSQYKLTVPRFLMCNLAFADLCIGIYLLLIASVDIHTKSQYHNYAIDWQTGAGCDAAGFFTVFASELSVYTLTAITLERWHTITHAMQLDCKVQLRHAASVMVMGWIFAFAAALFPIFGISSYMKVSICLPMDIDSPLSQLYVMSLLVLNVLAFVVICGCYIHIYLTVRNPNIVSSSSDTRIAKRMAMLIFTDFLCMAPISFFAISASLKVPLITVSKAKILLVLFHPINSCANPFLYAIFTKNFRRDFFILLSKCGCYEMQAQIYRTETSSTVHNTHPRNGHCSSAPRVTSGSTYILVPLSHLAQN
Assay: EC50 of cyclic AMP production in CHO FSHR cells + EC20 FSH (Assay A)
Assay type: cell-based
Settings: CHO FSHR cells + EC20 FSH, cAMP HTRF; read-out: Assay A: EC50 of cyclic AMP production
assayMetric: EC50

| molecule | systemTested | result |
| --- | --- | --- |
| COc1cc2c(cc1C(O)C(C)(C)O)-c1c(c(C(=O)N(C)C(C)(C)C)nn1-c1ccsc1)CO2 (stereo not shown) [Compound 38] | FSHR (Homo sapiens) | 1000 to 5000 nM |
| CCCn1nc(C)cc1-c1cc2c(cc1OC)OCc1c(C(=O)N3CCOCC3(C)C)nn(-c3ccsc3)c1-2 [Compound 212] | FSHR (Homo sapiens) | < 100 nM |
| COc1cc2c(cc1C=C(C)C)-c1c(c(C(=O)N(C)C(C)(C)C)nn1-c1cccs1)CO2 [Compound 90] | FSHR (Homo sapiens) | < 100 nM |
| COc1cc2c(cc1-c1ccn(C)n1)-c1c(c(C(=O)N[C@H]3CC[C@@H](O)C3)nn1-c1ccsc1)CO2 [Compound 172] | FSHR (Homo sapiens) | > 5000 nM |
| COc1cc2c(cc1CN)-c1c(c(C(=O)N3CCOCC3(C)C)nn1-c1ccsc1)CO2 [Compound 166] | FSHR (Homo sapiens) | 1000 to 5000 nM |
| COc1cc2c(cc1-c1sc(C)nc1C)-c1c(c(C(=O)N(C)C(C)(C)C)nn1-c1ccsc1)CO2 [Compound 53] | FSHR (Homo sapiens) | < 100 nM |
| COc1cc2c(cc1-c1ccc(C)s1)-c1c(c(C(=O)N(C)C(C)(C)C)nn1-c1ccsc1)CO2 [Compound 93] | FSHR (Homo sapiens) | < 100 nM |
